# credit: PubChem BioAssay (NCI)

Measured TGI values are reported for all entries that follow.
System: SK-OV-3 ovarian
experiment: NCI tumour cell line growth inhibition, 48 h

Task: Given `CCN(CC)C(=C(C(Cl)=C(Cl)Cl)[N+](=O)[O-])N(CC)CC` , state its recorded TGI.
Result: > 100 µM

Task: Given c1ccc2c(C3CCN(CCN4CCOCC4)C3)c[nH]c2c1 (stereo not given) , state its recorded TGI.
Result: > 100 µM

Task: Given `COc1ccc([N+](=O)[O-])c2c(NCCCN(C)C)c3ccccc3nc12` , state its recorded TGI.
Result: 2.38 µM

Attention now turns to another entry.
Task: Given `COc1ccccc1N1C(=O)/C(=C/c2ccc(N(CCC#N)CCC#N)cc2C)N=C1c1cc([N+](=O)[O-])ccc1Cl` , state its recorded TGI.
Result: > 100 µM

###

Measured TGI values are reported for all entries that follow.
System: M19-MEL melanoma
experiment: NCI tumour cell line growth inhibition, 48 h

Worked examples follow.
Task: Given O=C1c2ccccc2C(O)(C(=O)O)C1(O)CC=C(Cl)Cl (stereo unspecified) , state its recorded TGI.
Result: > 125 µM

Task: Given O=C1OC(CC(=O)c2ccc(Cl)c(Cl)c2)C(Cl)=C1Cl (stereo unspecified) , state its recorded TGI.
Result: > 100 µM

Task: Given c1ccc2c(c1)CCC/C2=N\OCC1CO1 (stereo unspecified) , state its recorded TGI.
Result: > 100 µM

New cases:
Task: Given `CCOC(=O)NC(=O)c1cn(CC(=O)NCC(=O)NCC(=O)NCCCN2CCN(CCCNC(=O)CNC(=O)CNC(=O)Cn3cc(C(=O)NC(=O)OCC)c(=O)[nH]c3=O)CC2)c(=O)[nH]c1=O` , state its recorded TGI.
Result: > 100 µM

Task: Given `CC(=O)c1cccc(N2COC(C)(C)c3nc4ccccc4n3C2)c1` , state its recorded TGI.
Result: > 100 µM

Task: Given `COc1c2nc(CCl)[nH]c(=O)c2c(OC)c2nc(CCl)[nH]c(=O)c12` , state its recorded TGI.
Result: > 100 µM

###

Test system: RXF 393 renal
experiment: NCI tumour cell line growth inhibition, 48 h
Measured GI50 values are reported for all entries that follow.

Worked examples follow.
Task: Given CC12OC(c3ccccc3)=CC(c3ccc(Cl)cc3)=C1C(c1ccccc1)=CC2=O (centres undefined) , state its recorded GI50.
Result: 19.1 µM

Task: Given `COc1ccc(/C=N\NC(=O)CN2CCN(c3cc4c(cc3F)c(=O)c(C(=O)N/N=C/c3ccc(OC)c(OC)c3)cn4C3CC3)CC2)cc1OC` , state its recorded GI50.
Result: 3.79 µM

Task: Given `Cc1cc(C)c([O-])c(CN(C)CCN(C)Cc2cc(C)cc(C)c2[O-])c1.O=C([O-])c1cccc(C(=O)[O-])n1.[Ti+4]` , state its recorded GI50.
Result: 1.42 µM

Attention now turns to another entry.
Task: Given `O=S(=O)(NC1=NCCN1C(=S)SN1CCn2c1nsc2=S)c1ccc(Br)cc1` , state its recorded GI50.
Result: 17.8 µM

###

Tested on: MCF7 breast
experiment: NCI tumour cell line growth inhibition, 48 h; in the data active = GI50 below about 0.43 µM; inactive = the rest
Pick one: 1 (yes) for active, 0 (no) for inactive

Task: Field: outcome | Entry: `O=Cc1ccc(-c2cc(C=O)c(-c3cccs3)[nH]2)s1`
Result: 0 (no)

Task: Field: outcome | Entry: `COc1cc(C(=O)/C(C)=C/c2c[nH]c3ccccc23)cc(OC)c1OC`
Result: 1 (yes)

Task: Field: outcome | Entry: `COc1cc2c(cc1OCCCOc1cc3c(cc1OC)C(=O)N1C[C@H](F)C[C@H]1C=N3)N=C[C@@H]1C[C@@H](F)CN1C2=O`
Result: 0 (no)

Task: Field: outcome | Entry: `CN[C@@H](C)C(=O)N[C@H](C(=O)N1CCC[C@H]1C(=O)N[C@H]1c2ccccc2C[C@H]1OCC#CC#CCO[C@@H]1Cc2ccccc2[C@@H]1NC(=O)[C@@H]1CCCN1C(=O)[C@@H](NC(=O)[C@H](C)NC)C1CCCCC1)C1CCCCC1`
Result: 0 (no)

Task: Field: outcome | Entry: `CC1=C2[C@@H](CC1)[C@]1(C)O[C@@](C3CCCCC3)(C[C@H]1OC(=O)CO)[C@H]2OC(=O)/C=C/c1ccccc1`
Result: 0 (no)

Task: Field: outcome | Entry: `CC(=O)[O-].CC(=O)[O-].[Pt+2].c1cscn1.c1cscn1`
Result: 0 (no)

Task: Field: outcome | Entry: `ClCc1cccc(Cn2cnc3c(NC45CC6CC(CC(C6)C4)C5)ncnc32)c1`
Result: 0 (no)

Task: Field: outcome | Entry: `CCOC(=O)C(Cc1c[nH]c2ccc(N)cc12)(NC(C)=O)C(=O)OCC`
Result: 0 (no)

New cases:
Task: Field: outcome | Entry: `COc1cc(Nc2nccc(Nc3ccc4c(C)[nH]nc4c3)n2)cc(OC)c1OC`
Result: 0 (no)

Task: Field: outcome | Entry: CC(C)=CCCC(C)c1ccc(C)c2c1OCN(CC1CCNCC1)C2 (stereo not given)
Result: 0 (no)
